All values here come from patent US6737383B1.

# Soybean plant response rating annotations
# Tested on: soybean
# Experiment: Test B pre/postemergence soybean
# Assay type: in vivo, Glycine max
# Condition parameters: Postemergence, Rate 500 g/ha; scale of 0 to 10 where 0 is no effect and 10 is complete control

Below are worked cases with known answers.
{"columns": ["Compound", "Observed result"],
 "data": [
  ["CCN(C(=O)n1oc(=O)n(C2CCCCCC2)c1=O)C1CCCCC1 [Compound 429]", 3],
  ["CC(C)N(C(=O)n1oc(=O)n(CCC#N)c1=O)c1ccccc1 [Compound 436]", 4],
  ["Cc1nc(Cl)sc1C(C)n1c(=O)on(C(=O)N(c2ccc(F)cc2F)C(C)C)c1=O (stereo not shown) [Compound 405]", 3]
]}

Then this compound:
Req: GET /values?readout=Soybean plant response rating&item= CC1CC1Cn1c(=O)on(C(=O)N(c2ccc(F)cc2)C(C)C)c1=O (stereo not shown) [Compound 402]
Resp: 8
